# System tested: T1, recombinant LILRA1 ECD (human, UniProt O75019 17-461)
# T1 construct: whole canonical entry named; also called LILA1
# T1 sequence (O75019 17-461 limits assumed): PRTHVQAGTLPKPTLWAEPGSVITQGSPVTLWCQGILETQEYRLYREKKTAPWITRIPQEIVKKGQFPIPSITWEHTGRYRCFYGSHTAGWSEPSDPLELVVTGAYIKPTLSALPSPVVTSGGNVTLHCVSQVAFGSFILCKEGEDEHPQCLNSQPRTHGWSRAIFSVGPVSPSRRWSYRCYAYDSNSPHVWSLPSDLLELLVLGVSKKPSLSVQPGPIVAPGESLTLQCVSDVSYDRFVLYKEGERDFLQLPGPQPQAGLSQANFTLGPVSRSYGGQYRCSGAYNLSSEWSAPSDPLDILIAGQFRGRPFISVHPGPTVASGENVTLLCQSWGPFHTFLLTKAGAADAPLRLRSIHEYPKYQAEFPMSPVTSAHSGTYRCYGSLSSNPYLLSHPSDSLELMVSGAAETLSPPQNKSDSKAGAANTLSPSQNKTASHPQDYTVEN
# Experiment summary: BLI, IgG on AHC sensor, ECD in solution
Endpoint: Kd

Data request: May I ask what Kd has been recorded for A-009 (antibody, V domains shown, tested as IgG) VH: QVQLVQSGAEVKKPGSSVKVSCKASGGTFSVTAILWVRQAPGQGLEWMGGIIPSFTSANYASKFQGRVTITADESTSTAYMELSSLRSEDTAVYYCAKDLGTYSSGWPYYYGMDVWGQGTTVTVSS VL: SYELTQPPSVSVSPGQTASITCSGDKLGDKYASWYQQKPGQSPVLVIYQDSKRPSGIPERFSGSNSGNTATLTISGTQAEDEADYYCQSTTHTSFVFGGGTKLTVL ?
Data returned: 194 nM

Data request: May I ask what Kd has been recorded for A-020 (antibody, V domains shown, tested as IgG) VH: QVQLVQSGAEVKKPGSSVKVSCKASGGTFQTYAISWVRQAPGQGLEWMGSIIPKFYQSNYAYKFQGRVTITADESTSTAYMELSSLRSEDTAVYYCAKDLGTYSSGWPYYYGMDVWGQGTTVTVSS VL: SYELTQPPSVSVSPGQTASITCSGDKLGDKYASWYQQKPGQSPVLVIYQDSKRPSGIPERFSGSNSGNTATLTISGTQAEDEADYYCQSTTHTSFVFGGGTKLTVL ?
Data returned: 316 nM

Data request: May I ask what Kd has been recorded for A-040 (antibody, V domains shown, tested as IgG) VH: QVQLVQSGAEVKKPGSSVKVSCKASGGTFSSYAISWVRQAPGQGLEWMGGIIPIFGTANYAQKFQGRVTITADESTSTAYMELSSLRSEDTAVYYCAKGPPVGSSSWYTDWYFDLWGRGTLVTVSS VL: SYELTQPPSVSVSPGQTASITCSGDKLGDKYASWYQQKPGQSPVLVIYQDSKRPSGIPERFSGSNSGNTATLTISGTQAEDEADYYCSLYGPAHTGVFGGGTKLTVL ?
Data returned: 51.6 nM

Data request: May I ask what Kd has been recorded for A-024 (antibody, V domains shown, tested as IgG) VH: QVQLVQSGAEVKKPGSSVKVSCKASGYTFTGSAMSWVRQAPGQGLEWMGGILPIFGTSVYAQKFQGRVTITADESTSTAYMELSSLRSEDTAVYYCAKGPPVGSSSWYTDWYFDLWGRGTLVTVSS VL: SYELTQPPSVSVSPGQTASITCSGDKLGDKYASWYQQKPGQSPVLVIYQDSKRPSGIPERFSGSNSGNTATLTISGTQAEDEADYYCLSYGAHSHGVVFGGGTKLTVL ?
Data returned: 31.8 nM

Data request: May I ask what Kd has been recorded for A-031 (antibody, V domains shown, tested as IgG) VH: QVQLVQSGAEVKKPGSSVKVSCKASGYTFTKTAMSWVRQAPGQGLEWMGGIIPSYYTAVYAQKFQGRVTITADESTSTAYMELSSLRSEDTAVYYCAKGPPVGSSSWYTDWYFDLWGRGTLVTVSS VL: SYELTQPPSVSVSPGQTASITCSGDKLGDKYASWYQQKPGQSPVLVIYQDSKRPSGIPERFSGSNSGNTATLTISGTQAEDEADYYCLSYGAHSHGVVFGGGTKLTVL ?
Data returned: 11.6 nM
